System: Fibroblast
Test: Multiplex assay against human fibroblast
Format: toxicity, cell-based
Details: 24 h, 10 µM, compound concentration 10 uM, number of replicates 2
Task for the reader: assign each of the following molecules its reported Population Normal (%).
Give bare numbers, in %.

COc1c(OCCCN2CCOCC2)ccc2c1N=C(NC(=O)c1cnc(N)nc1)N1CCN=C21 [COPANLISIB] :: 100
Br.Oc1cc2c(cc1O)C(c1ccccc1)CNCC2 (centres undefined) :: 100
Cn1cc(-c2ccc(N(C(=O)NCc3ccccc3)[C@H]3CC[C@H](Nc4ccc(C#N)cn4)CC3)cc2)ccc1=O :: 99
COc1cc2nc(-c3cc(F)ccc3O)nc(N[C@@H]3CNC[C@H]3C(C)(C)O)c2cc1OC.Cl.Cl :: 100
CN(C)C/C=C/C(=O)Nc1ccc(C(=O)N2CCCC(Nc3ncc(Cl)c(-c4c[nH]c5ccccc45)n3)C2)cc1 (centres undefined) :: 98
COC(=O)c1ccc2c(c1)NC(=O)/C2=C(\Nc1ccc(-c2nccn2C)cc1)c1ccccc1 :: 99

Your task in this section: give Population Normal (%) for each listed record.
1. Cc1cc(-c2cnc(N)c3c(-c4ccc5scnc5c4)csc23)n(C)n1
2. CN(C)CCCN1c2ccccc2Sc2ccc(Cl)cc21.Cl [CHLORPROMAZINE HYDROCHLORIDE]
3. Cn1c(Nc2c(Cl)cccc2Cl)nc2ccc3nc[nH]c(=O)c3c21

OUT:
1. 100
2. 98
3. 100
